Target: DRD4 (D4.4 variant) (Homo sapiens)
Sequence (P21917 1-419): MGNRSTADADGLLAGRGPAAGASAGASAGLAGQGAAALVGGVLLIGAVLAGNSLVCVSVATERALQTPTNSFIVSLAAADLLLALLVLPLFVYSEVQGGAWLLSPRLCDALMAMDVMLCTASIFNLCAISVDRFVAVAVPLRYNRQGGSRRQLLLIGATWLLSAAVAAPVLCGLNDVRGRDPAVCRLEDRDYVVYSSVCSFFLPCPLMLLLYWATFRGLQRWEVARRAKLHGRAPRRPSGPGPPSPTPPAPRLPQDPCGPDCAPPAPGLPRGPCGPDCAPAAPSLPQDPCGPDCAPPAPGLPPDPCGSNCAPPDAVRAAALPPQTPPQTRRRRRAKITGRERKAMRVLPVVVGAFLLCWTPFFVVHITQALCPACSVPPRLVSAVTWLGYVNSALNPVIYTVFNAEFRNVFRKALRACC
Assay: Gαi/o-mediated cAMP inhibition (GloSensor)
Format: cell-based
Conditions: DRD4; agonist, cAMP inhibition; read-out: EC50 ± SEM
pEC50: −log10 of the molar value.
assay_readout: pEC50

Solved cases (3 shown):
CCOc1cccc2cc(C(C)NCc3ccccc3)oc12.Cl (centres unmarked) [O4LE9]
< 5.00
CCOc1cccc2cc(C(C)NCC3(O)CCCCCC3)oc12 (centres unmarked) [O4LE7]
< 5.00
CCOc1cccc2cc([C@H](C)NCC3(O)CCCCC3)oc12 [O4SE6]
< 5.00

Enter reported pEC50 observed with DRD4 (D4.4 variant) (Homo sapiens) for CCOc1cccc2cc(C(C)NCC(C)(C)O)oc12 (racemic) [O4LE2]
< 5.00

Observed pEC50 on DRD4 (D4.4 variant) (Homo sapiens) for CCCCOc1cccc2cc(C(C)NCC3(O)CCCCC3)oc12.Cl (centres unmarked) [O6LE6] , please.
< 5.00

---

Measured Emax accompanies every entry in the list below.
Target: DRD2 (D2 long receptor) (Homo sapiens, UniProt P14416)
Sequence (P14416 whole entry): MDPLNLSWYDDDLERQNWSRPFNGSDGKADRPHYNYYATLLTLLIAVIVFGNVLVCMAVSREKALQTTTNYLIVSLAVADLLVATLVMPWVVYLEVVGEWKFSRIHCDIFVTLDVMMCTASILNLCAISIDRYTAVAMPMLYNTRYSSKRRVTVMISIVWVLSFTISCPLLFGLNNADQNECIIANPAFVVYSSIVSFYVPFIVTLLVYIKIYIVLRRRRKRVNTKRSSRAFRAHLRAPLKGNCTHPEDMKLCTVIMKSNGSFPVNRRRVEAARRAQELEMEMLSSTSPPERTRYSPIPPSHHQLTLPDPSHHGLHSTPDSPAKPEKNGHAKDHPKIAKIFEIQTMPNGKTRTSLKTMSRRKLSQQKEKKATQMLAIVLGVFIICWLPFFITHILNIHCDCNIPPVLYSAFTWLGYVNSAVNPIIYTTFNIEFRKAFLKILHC
Assay: Gαi/o-mediated cAMP inhibition (GloSensor split-luciferase cAMP reporter), HEK293T;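 further: compounds applied 15 min at room temperature, then luciferin plus 400 nM isoproterenol to raise cAMP through endogenous β2-adrenergic receptors, luminescence read 15 min later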
Format: cell-based
Conditions: HEK-293T, read-out: Emax relative to quinpirole response; DRD2; cAMP inhibition
Reply numerically in %, unit not repeated.

Solved cases below.
CCOc1cccc2cc(C(C)NCC3(O)CCCCCC3)oc12 (centres unmarked)
95.2
CCOc1cccc2cc(C(C)NCC3(O)CCCCCCC3)oc12 (centres unmarked)
93.5
CCOc1cccc2cc([C@H](C)NCC3(O)CCCCC3)oc12
91.9
CCOc1cccc2cc([C@@H](C)NCC3(O)CCCCC3)oc12
94.5

// moving on: another record for Emax
If you can, please state the reported Emax value of CCOc1cccc2cc(C(C)NCC3(O)CCCCC3)oc12 (centres unmarked) .
94.8

---

Target: DRD2 F1103.28A (Homo sapiens, UniProt P14416, F110A)
Sequence (P14416 whole entry F110A): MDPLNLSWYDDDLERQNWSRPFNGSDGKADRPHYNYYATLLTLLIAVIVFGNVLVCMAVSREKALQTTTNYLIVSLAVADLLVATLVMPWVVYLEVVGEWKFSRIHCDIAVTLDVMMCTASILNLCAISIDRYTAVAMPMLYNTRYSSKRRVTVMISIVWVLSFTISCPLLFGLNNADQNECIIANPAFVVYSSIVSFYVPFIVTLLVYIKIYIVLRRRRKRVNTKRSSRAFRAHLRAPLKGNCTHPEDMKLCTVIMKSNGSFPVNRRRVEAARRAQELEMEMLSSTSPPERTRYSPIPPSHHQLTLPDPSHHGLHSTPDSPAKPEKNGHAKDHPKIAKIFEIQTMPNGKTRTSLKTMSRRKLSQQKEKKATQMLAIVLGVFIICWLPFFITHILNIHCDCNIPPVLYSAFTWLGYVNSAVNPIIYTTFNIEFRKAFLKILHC
Type: binding
Parameters: expressed in transfected cells; host or cells: HEK293T (ATCC CRL-11268)
Details: DRD2 F1103.28A
# pKi ± SEM listing for each entry below
Response field accepts a number only; no unit should be typed.

Look over these answered cases.
CCCOc1cccc2cc(C(C)NCC3(O)CCCCC3)oc12.Cl (stereo not drawn) [O5LE6]
6.17
COc1cccc2cc(C(C)NCC3(O)CCCCC3)oc12.Cl (stereo not drawn) [O3LE6]
5.49
CC(NCC1(O)CCCCC1)c1cc2cccc(O)c2o1.Cl (stereo not drawn) [O2LE6]
5.24

I would be grateful if you could share the reported pKi ± SEM for CCOc1cccc2cc(C(C)NCc3ccccc3)oc12.Cl (stereo not drawn) [O4LE9] .
5.28

For the compound shown here, CCOc1cccc2cc(C(C)NCC3(O)CCCC3)oc12.Cl (racemic) [O4LE5] , give the reported pKi ± SEM.
6.03

What value of pKi ± SEM has been recorded for this entry: CCCCOc1cccc2cc(C(C)NCC3(O)CCCCC3)oc12.Cl (stereo not drawn) [O6LE6]
6.53

---

Biological target: UniProt:P35462
Sequence (P35462 whole entry): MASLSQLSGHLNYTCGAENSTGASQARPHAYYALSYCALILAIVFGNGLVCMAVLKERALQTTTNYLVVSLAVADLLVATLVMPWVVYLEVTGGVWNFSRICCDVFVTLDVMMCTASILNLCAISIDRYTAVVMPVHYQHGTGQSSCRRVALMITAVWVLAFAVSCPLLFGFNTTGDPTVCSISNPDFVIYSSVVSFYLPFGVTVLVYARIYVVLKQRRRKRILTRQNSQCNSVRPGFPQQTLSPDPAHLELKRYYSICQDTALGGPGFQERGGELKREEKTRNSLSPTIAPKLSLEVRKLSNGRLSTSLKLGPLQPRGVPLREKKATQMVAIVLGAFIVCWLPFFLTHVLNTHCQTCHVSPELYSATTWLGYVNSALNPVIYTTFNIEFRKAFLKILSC
Assay: Radioligand competition binding, [3H]-N-methylspiperone
Details: DRD3 wild-type
Reported pKi ± SEM values for a set of compounds
No unit in the answer, only the number.

Would you please look over these solved cases?
CCOc1cccc2cc(C(C)NCC3(O)CCCC3)oc12.Cl (racemic) [O4LE5]
5.99
COc1cccc2cc(C(C)NCC3(O)CCCCC3)oc12.Cl (stereo not drawn) [O3LE6]
5.97
CC(NCC1(O)CCCCC1)c1cc2ccccc2o1.Cl (stereo not drawn) [O1LE6]
6.12
CCOc1cccc2cc(C(C)NCc3ccccc3)oc12.Cl (stereo not drawn) [O4LE9]
5.23
CC(NCC1(O)CCCCC1)c1cc2cccc(O)c2o1.Cl (stereo not drawn) [O2LE6]
5.46
CCOc1cccc2cc(C(C)NCC3(O)CCC3)oc12.Cl (stereo not drawn) [O4LE4]
5.39

Quick one: pKi ± SEM for CCCOc1cccc2cc(C(C)NCC3(O)CCCCC3)oc12.Cl (stereo not drawn) [O5LE6] ?
6.41

Given CCCCOc1cccc2cc(C(C)NCC3(O)CCCCC3)oc12.Cl (stereo not drawn) [O6LE6] , state its recorded pKi ± SEM.
6.07

Entry under review: CCOc1cccc2cc(C(C)NCC3(O)CC3)oc12.Cl (racemic) [O4LE3] . Reported pKi ± SEM?
5.36

---

Target: DRD2 (D2 long receptor) (Homo sapiens)
Test: Gαi/o-mediated cAMP inhibition (GloSensor split-luciferase cAMP reporter), HEK293T
Format: cell-based
Conditions: DRD2; agonist, Gαi/o-mediated cAMP inhibition; read-out: EC50 ± SEM
Recorded measurements of pEC50, one per entry
API: returns pEC50 as number; meaning -log10 of concentration in mol/L.

CCOc1cccc2cc([C@@H](C)NCC3(O)CCCCC3)oc12
9.35
CCCOc1cccc2cc(C(C)NCC3(O)CCCCC3)oc12.Cl (stereo not drawn)
9.29
CC(NCC1(O)CCCCC1)c1cc2ccccc2o1.Cl (stereo not drawn)
7.48

Entry under review: CCOc1cccc2cc(C(C)NCC3(O)CCCCC3)oc12 (stereo not drawn) . Reported pEC50?
9.24

---

Target: DRD2 (D2 long receptor) (Homo sapiens)
Experiment: Gαi/o-mediated cAMP inhibition (GloSensor split-luciferase cAMP reporter), HEK293T
Type: cell-based
Details: DRD2; cAMP inhibition
Listed below: Emax relative to quinpirole response values for each entry.
Unit % implied. Number only.

Answered examples (2):
CCCOc1cccc2cc(C(C)NCC3(O)CCCCC3)oc12.Cl (centres unmarked)
92.80
COc1cccc2cc(C(C)NCC3(O)CCCCC3)oc12.Cl (centres unmarked)
91.62

Given the entry CCOc1cccc2cc(C(C)NCC3(O)CCCC3)oc12.Cl (racemic) , report its measured Emax relative to quinpirole response.
90.02

Look up Emax relative to quinpirole response: CCCCOc1cccc2cc(C(C)NCC3(O)CCCCC3)oc12.Cl (centres unmarked)
96.65

Look at this molecule and give its reported Emax relative to quinpirole response. CC(NCC1(O)CCCCC1)c1cc2ccccc2o1.Cl (centres unmarked)
91.90

---

Molecular target: DRD2 (D2 long receptor) (Homo sapiens)
Assay: β-arrestin2 recruitment (Tango), HTLA cells
Type: cell-based
Settings: DRD2; β-arrestin2 recruitment (Tango); read-out: EC50 ± SEM
assay_readout: pEC50
By convention, pEC50 is the negative base-10 log of a molar concentration.

CCOc1cccc2cc(C(C)NCC3(O)CCCCCCC3)oc12 (centres unmarked)
6.02

Can you share its pEC50? I mean this compound: `CCOc1cccc2cc([C@@H](C)NCC3(O)CCCCC3)oc12`
7.31

Query (compound): CC(NCC1(O)CCCCC1)c1cc2ccccc2o1.Cl (centres unmarked) ; field requested: pEC50
6.10

Record request: pEC50 value, item CCOc1cccc2cc(C(C)NCC3(O)CC3)oc12.Cl (racemic)
5.05

---

Target: DRD4 (D4.4 variant) wild-type (Homo sapiens)
Sequence (P21917 1-419): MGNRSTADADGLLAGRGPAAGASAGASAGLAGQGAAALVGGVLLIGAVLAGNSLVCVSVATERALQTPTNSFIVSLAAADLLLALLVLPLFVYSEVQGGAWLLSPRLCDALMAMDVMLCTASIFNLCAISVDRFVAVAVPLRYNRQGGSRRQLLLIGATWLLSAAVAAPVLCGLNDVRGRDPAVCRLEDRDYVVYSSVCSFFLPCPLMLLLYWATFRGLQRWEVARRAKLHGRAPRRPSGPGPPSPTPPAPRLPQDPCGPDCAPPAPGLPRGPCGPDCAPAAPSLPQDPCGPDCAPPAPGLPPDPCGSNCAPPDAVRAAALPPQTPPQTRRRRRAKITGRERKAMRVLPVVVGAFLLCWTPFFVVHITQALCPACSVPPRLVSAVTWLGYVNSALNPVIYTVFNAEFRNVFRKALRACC
Experiment: Radioligand competition binding, [3H]-N-methylspiperone
assay_readout: pKi
Quick note: pKi values are minus log10 of concentrations in mol/L.

Reported pKi for `OC1(c2ccc(Cl)cc2)CCN(Cc2c[nH]c3ccccc23)CC1` : what is it?
6.77
